// data source = patent US20140358576A1

CONDITION_DESCRIPTION: human
Structures can show the parent of a compound that is named as a salt.
Entry flag: True if RxScore reaches 50; False if it does not.

[
  {
    "COMPOUND": "O=C1NC(=O)C(c2ccccc2)(c2ccccc2)N1 [phenytoin sodium]",
    "DISCRETE_LABEL": "False"
  },
  {
    "COMPOUND": "Cc1nnc2n1-c1ccc(Cl)cc1C(c1ccccc1)=NC2 [alprazolam]",
    "DISCRETE_LABEL": "True"
  },
  {
    "COMPOUND": "CCCCC[C@H](O)/C=C/[C@H]1[C@H](O)CC(=O)[C@@H]1C/C=C\\CCCC(=O)O [dinoprostone]",
    "DISCRETE_LABEL": "True"
  },
  {
    "COMPOUND": "NCC1(CC(=O)O)CCCCC1 [gabapentin]",
    "DISCRETE_LABEL": "False"
  },
  {
    "COMPOUND": "CN(C)CCC=C1c2ccccc2C=Cc2ccccc21 [cyclobenzaprine hydrochloride]",
    "DISCRETE_LABEL": "True"
  },
  {
    "COMPOUND": "O=C1CCCC(=O)C1C(=O)c1ccc(C(F)(F)F)cc1[N+](=O)[O-] [nitisinone]",
    "DISCRETE_LABEL": "True"
  },
  {
    "COMPOUND": "CN[C@@H](C)Cc1ccccc1 [methamphetamine hydrochloride]",
    "DISCRETE_LABEL": "True"
  },
  {
    "COMPOUND": "CNC[C@H](O)c1ccc(O)c(O)c1 [epinephrine injection, epinephrine]",
    "DISCRETE_LABEL": "True"
  },
  {
    "COMPOUND": "CCCC(CCC)C(=O)O [valproic acid]",
    "DISCRETE_LABEL": "True"
  },
  {
    "COMPOUND": "CCC1(C)CC(=O)NC1=O (stereo not drawn) [ethosuximide]",
    "DISCRETE_LABEL": "False"
  },
  {
    "COMPOUND": "CN1C(=O)C(O)N=C(c2ccccc2)c2cc(Cl)ccc21 (stereo not drawn) [temazepam]",
    "DISCRETE_LABEL": "True"
  },
  {
    "COMPOUND": "CCC1(c2ccccc2)C(=O)NCNC1=O [primidone]",
    "DISCRETE_LABEL": "False"
  },
  {
    "COMPOUND": "CC(OC(=O)NCC1(CC(=O)O)CCCCC1)OC(=O)C(C)C (stereo not drawn) [gabapentin enacarbil]",
    "DISCRETE_LABEL": "False"
  },
  {
    "COMPOUND": "N#Cc1ccccc1-c1cc(-c2ccccn2)cn(-c2ccccc2)c1=O [perampanel]",
    "DISCRETE_LABEL": "False"
  },
  {
    "COMPOUND": "NC(=O)OCC(COC(N)=O)c1ccccc1 [felbamate]",
    "DISCRETE_LABEL": "False"
  },
  {
    "COMPOUND": "CC(C)C[C@H](CN)CC(=O)O [pregabalin]",
    "DISCRETE_LABEL": "False"
  },
  {
    "COMPOUND": "Nc1nnc(-c2cccc(Cl)c2Cl)c(N)n1 [lamotrigine]",
    "DISCRETE_LABEL": "False"
  }
]
